This collection of values is drawn from patent EP0751768B1.

- ASSAY PROTOCOL: in vivo
- EXPERIMENTAL SETUP: rat, iv
MEASURED METRIC: MTD at 5 days (mg/kg/day)
One number for each entry, in mg/kg/day.

Task item: Name the recorded MTD at 5 days of the compound listed here: O=C(O)c1cc([N+](=O)[O-])ccc1Cl [C17, 2-chloro-5-nitrobenzoic acid]
Reply: 900

* * *

- Test system: uninfected cells
- EXPERIMENTAL SETUP: read-out: CC50 (Toxicity), Average; listed under Against HIV-I IIIB; average of the lines above
MEASURED METRIC: CC50 (µM)
Give bare numbers, in µM.

Task item: Please list CC50 recorded for the compound `O=C(O)c1cc([N+](=O)[O-])c(Cl)c([N+](=O)[O-])c1`
Reply: 85

* * *

- System: HIV-I IIIB
- ASSAY PROTOCOL: Acute infection assay, HIV core antigen ELISA (HIV-I IIIB)
- Type: cell-based
- EXPERIMENTAL SETUP: Human immunodeficiency virus 1, IIIB, read-out: IC50 (Antiviral), Average
MEASURED METRIC: pIC50
Answers are plain numbers, as −log10 of the molar value.

Task item: Return value of pIC50 for input `O=C(O)c1cc([N+](=O)[O-])c(Cl)c([N+](=O)[O-])c1Cl` , no commentary.
Reply: 4.57

* * *

- ASSAY PROTOCOL: in vivo
- EXPERIMENTAL SETUP: mouse, iv
MEASURED METRIC: MTD at 5 days (mg/kg/day)
Give bare numbers, in mg/kg/day.

Task item: Please give measured MTD at 5 days of the following entry: O=C(O)c1cc([N+](=O)[O-])ccc1Cl [C17, 2-chloro-5-nitrobenzoic acid]
Reply: 950

* * *

- Tested on: uninfected H9 cells
- ASSAY PROTOCOL: Toxicity in uninfected H9 cells, 14C protein hydrolysate incorporation, four days
- Type: cell-based
- EXPERIMENTAL SETUP: listed under Against Chronically infected cells; average of the lines above
MEASURED METRIC: CC50 (µM)
One number for each entry, in µM.

Task item: # return recorded CC50 for input `O=C(O)c1cc([N+](=O)[O-])c(Cl)c([N+](=O)[O-])c1Cl`
Reply: 63

* * *

- System: uninfected cells
MEASURED METRIC: CC50 (µM)
One number for each entry, in µM.

Some solved cases for reference:
> print(dat)
                                item.smiles  endpoint.unit  reported.result
1  COC(=O)c1cc([N+](=O)[O-])cc([N+](=O)[O-])c1Cl             µM               60
2  COC(=O)c1cc([N+](=O)[O-])c(Cl)c([N+](=O)[O-])c1             µM               60

Task item: In one line, give reported CC50 of the entry `COC(=O)c1cc([N+](=O)[O-])c(Cl)c([N+](=O)[O-])c1Cl` .
Reply: 7

* * *

Assign SI (Selectivity Index) to each entry below.
- Tested on: HIV-I IIIB
- ASSAY PROTOCOL: Acute infection assay, HIV core antigen ELISA (HIV-I IIIB)
- Format: cell-based
Numbers only.

> print(dat)
                                item.smiles         measured.metric  reported.result
1  COC(=O)c1cc([N+](=O)[O-])c(Cl)c([N+](=O)[O-])c1  SI (Selectivity Index)               12
2  COC(=O)c1cc([N+](=O)[O-])cc([N+](=O)[O-])c1Cl  SI (Selectivity Index)                5
3  O=C(O)c1cc([N+](=O)[O-])c(Cl)c([N+](=O)[O-])c1Cl  SI (Selectivity Index)                2

The record that follows has no SI (Selectivity Index) shown yet.
Task item: Supply measured SI (Selectivity Index) of `COC(=O)c1cc([N+](=O)[O-])c(Cl)c([N+](=O)[O-])c1Cl` in your reply.
Reply: 23
